- target or system: T1, ClpS adaptor (intact, wild type) (E. coli, UniProt P0A8Q6 1-106)
- T1 sequence (looked up): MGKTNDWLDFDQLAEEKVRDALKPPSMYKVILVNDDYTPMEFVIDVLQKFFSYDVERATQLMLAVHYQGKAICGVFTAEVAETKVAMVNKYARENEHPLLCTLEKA
- assay comment: fluorescence polarisation
pKd: −log10 of the molar value. No end group written: not given here.
property label: pKd

Request: Could you tell me which pKd is on file for LLYVQRDSKEC(fluorescein maleimide) [fluorescent N-end-rule peptide LLYVQRDSKEC-fl] ?
Response: ~5.52
